Data origin, for the record: patent US12441706B2

Each entry below carries its recorded Emax.
System: LNcap FGC cells
Assay: Inhibition of proliferation of LNcap FGC cells (Cell Titer Glo, 6 days)
Format: cell-based
Settings: Homo sapiens, LNCaP, 144 h

{"COMPOUND": "CC1(C)C(=O)N(c2ccc(C#N)c(Cl)c2)c2ccc(-c3ccc(N4CC(CN5CCN(c6ccc7c(c6)C(=O)N(C6CCC(=O)NC6=O)C7=O)CC5)C4)cc3)cc21 (stereo not drawn) [Compound 1]", "Emax": "91%"}
{"COMPOUND": "CC1(C)C(=O)N(c2ccc(C#N)c(Cl)c2)c2ccc(-c3ccc(-c4cnn(CCN5CCN(c6ccc7c(c6)C(=O)N(C6CCC(=O)NC6=O)C7=O)CC5)c4)cc3)cc21 (stereo not drawn) [Compound 12]", "Emax": "68%"}
{"COMPOUND": "CC1(C)C(=O)N(c2ccc(C#N)c(Cl)c2)c2ccc(-c3ncc(N4CC(CN5CCN(c6ccc7c(c6)C(=O)N(C6CCC(=O)NC6=O)C7=O)CC5)C4)cn3)cc21 (stereo not drawn) [Compound 6]", "Emax": "99%"}
{"COMPOUND": "CC1(C)C(=O)N(c2ccc(C#N)c(Cl)c2)c2ccc(-c3ccc(N4CC(CN5CCN(c6ccc7c(c6)C(=O)N(C6CCC(=O)NC6=O)C7=O)CC5)C4)nc3F)cc21 (stereo not drawn) [Compound 14]", "Emax": "100%"}
{"COMPOUND": "CC1(C)C(=O)N(c2ccc(C#N)c(C(F)(F)F)c2)c2ccc(-c3ccc(N4CC(CN5CCN(c6ccc7c(c6)C(=O)N(C6CCC(=O)NC6=O)C7=O)CC5)C4)cc3)cc21 (stereo not drawn) [Compound 3]", "Emax": "93%"}
{"COMPOUND": "CC1(C)C(=O)N(c2ccc(C#N)c(Cl)c2)c2ccc(-c3ccc(N4CC(CN5CCN(c6ccc7c(c6)C(=O)N(C6CCC(=O)NC6=O)C7=O)CC5)C4)nc3)cc21 (stereo not drawn) [Compound 9]", "Emax": "100%"}

====

Target: androgen receptor (Homo sapiens, UniProt P10275, T878A)
Construct: endogenous in cells; host or cells: LNCaP cells
Sequence (P10275 1-920 T878A): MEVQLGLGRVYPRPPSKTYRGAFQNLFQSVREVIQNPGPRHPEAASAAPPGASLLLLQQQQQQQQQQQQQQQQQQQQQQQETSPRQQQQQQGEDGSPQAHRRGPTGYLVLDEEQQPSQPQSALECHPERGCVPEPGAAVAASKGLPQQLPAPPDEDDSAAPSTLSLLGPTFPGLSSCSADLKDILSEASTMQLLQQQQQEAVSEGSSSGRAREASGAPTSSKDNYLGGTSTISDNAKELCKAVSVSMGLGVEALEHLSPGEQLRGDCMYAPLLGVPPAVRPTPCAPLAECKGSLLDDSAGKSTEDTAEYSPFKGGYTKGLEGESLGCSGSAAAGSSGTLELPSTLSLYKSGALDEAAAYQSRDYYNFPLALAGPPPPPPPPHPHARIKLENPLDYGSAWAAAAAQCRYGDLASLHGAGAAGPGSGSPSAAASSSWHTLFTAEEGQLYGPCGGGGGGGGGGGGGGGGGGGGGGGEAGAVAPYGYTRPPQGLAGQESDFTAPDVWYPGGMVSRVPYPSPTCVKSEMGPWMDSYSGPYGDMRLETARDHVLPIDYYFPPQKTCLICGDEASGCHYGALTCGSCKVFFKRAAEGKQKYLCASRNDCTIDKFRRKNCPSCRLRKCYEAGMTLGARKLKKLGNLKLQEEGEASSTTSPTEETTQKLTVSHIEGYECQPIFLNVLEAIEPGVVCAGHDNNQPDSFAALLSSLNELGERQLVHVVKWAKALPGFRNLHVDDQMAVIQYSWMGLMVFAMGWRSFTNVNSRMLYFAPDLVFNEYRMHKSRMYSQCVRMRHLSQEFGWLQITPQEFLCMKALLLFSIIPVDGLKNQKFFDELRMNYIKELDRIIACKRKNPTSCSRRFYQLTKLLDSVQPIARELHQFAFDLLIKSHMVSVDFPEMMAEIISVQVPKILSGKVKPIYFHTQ
Test: In-Cell-Western determination of androgen receptor degradation in LnCaP cells
Format: cell-based
Settings: LNCaP

{"MOLECULE": "CC1(C)C(=O)N(c2ccc(C#N)c(Cl)c2)c2ccc(-c3ccc(N4CC(CN5CCN(c6cc7c(cc6F)C(=O)N(C6CCC(=O)NC6=O)C7=O)CC5)C4)cc3)cc21 (stereo not drawn) [Compound 7]", "MEASUREMENT_UNIT": "%", "Dmax": 75}
{"MOLECULE": "CC1(C)C(=O)N(c2ccc(C#N)c(Cl)c2)c2ccc(-c3ccc(-c4cnn(CCCN5CCN(c6ccc7c(c6)C(=O)N(C6CCC(=O)NC6=O)C7=O)CC5)c4)cc3)cc21 (stereo not drawn) [Compound 13]", "MEASUREMENT_UNIT": "%", "Dmax": 100}
{"MOLECULE": "CC1(C)C(=O)N(c2ccc(C#N)c(C(F)(F)F)c2)c2ccc(-c3ccc(N4CC(CN5CCN(c6ccc7c(c6)C(=O)N(C6CCC(=O)NC6=O)C7=O)CC5)C4)cc3)cc21 (stereo not drawn) [Compound 3]", "MEASUREMENT_UNIT": "%", "Dmax": 89}
